Origin of the recorded values: patent US10689354B2

Study System: androgen receptor (AR-LBD) (Rattus norvegicus)
Construct: 5 μL of 2×AR-LBD/Fluoromone AL Red Complex contained in the kit; purchased Invitrogen
Sequence (P15207 651-882 limits assumed): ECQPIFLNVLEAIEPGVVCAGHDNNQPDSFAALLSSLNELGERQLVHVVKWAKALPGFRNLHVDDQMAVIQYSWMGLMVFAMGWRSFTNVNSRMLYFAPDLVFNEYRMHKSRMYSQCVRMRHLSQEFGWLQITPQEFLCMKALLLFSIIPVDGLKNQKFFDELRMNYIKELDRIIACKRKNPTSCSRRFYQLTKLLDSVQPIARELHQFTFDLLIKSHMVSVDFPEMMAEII
Assay Explanation: Evaluation of androgen receptor affinity (PolarScreen Androgen Receptor Competitor Assay Kit, Red; fluorescence polarization)
Condition Context: 22° C. for 5 hours, relative to binding rate of 1 μM DHT, read-out: AR affinity (pEC50) (converted)
Outcome Measure: EC50 (µM)

Cc1sc(N(Cc2ccc(OC(F)(F)F)cc2)c2ccc(C#N)cc2)nc1C(=O)NS(=O)(=O)Cc1ccncc1 [Compound 500] | 0.02
Cc1sc(N(CCc2ccc(C#N)cc2)Cc2ccc(Cl)cc2)nc1C(=O)NS(C)(=O)=O [Example 306] | 0.0316
Cc1sc(N(Cc2cccc(N(C)C)c2)c2ccc(C#N)cc2)nc1C(=O)NS(C)(=O)=O [Example 215] | 0.0501
COc1ccc(CN(c2ccc(C#N)cc2)c2nc(C(=O)NS(C)(=O)=O)c(C)s2)c(F)c1F [Compound 112] | 0.0316
COCCCS(=O)(=O)NC(=O)c1nc(N(CCc2ccc(C#N)cc2)Cc2ccc(C(F)(F)F)nc2)oc1C [Compound 559] | 0.316
Cc1sc(N(Cc2ccccc2)c2ccc(OC(F)(F)F)cc2)nc1C(=O)NS(C)(=O)=O [Compound 34] | 0.0631
Cc1sc(N(Cc2ccc(C(F)F)c(F)c2)c2ccc(C#N)cc2)nc1C(=O)NS(C)(=O)=O [Compound 155] | 0.0316
Cc1sc(N(Cc2cc(F)cc(OC(F)F)c2)c2ccc(C#N)cc2)nc1C(=O)NS(C)(=O)=O [Compound 518] | 0.0251

1: Cc1nc(CN(c2ccc(C#N)cc2)c2nc(C(=O)NS(C)(=O)=O)c(Br)s2)cs1 [Example 281]
2: Cc1sc(N(Cc2ccccc2)c2ccc(C#N)cc2)nc1C(=O)NS(=O)(=O)CC(C)C [Compound 371]
query: // max by EC50 over [ 1 , 2 ] In your reply, give the label of the chosen option.
result: 1
(1: 0.398 µM, 2: 0.2 µM)

I: Cc1sc(N(Cc2ccccc2)c2ccc(C#N)cn2)nc1C(=O)NS(C)(=O)=O [Compound 602]
II: Cc1sc(N(CCc2cccc(O)c2)c2ccc(C#N)cc2)nc1C(=O)NS(C)(=O)=O [Compound 401]
III: Cc1sc(N(Cc2ccccc2)CC(O)c2ccccc2)nc1C(=O)NS(C)(=O)=O (centres unmarked) [Compound 462]
query: Please list these in order of increasing EC50. Thank you! Answer format: list of labels, ordered as asked.
result: II, I, III

P: CS(=O)(=O)NC(=O)c1nc(N(Cc2ccc(C(F)(F)F)nc2)c2ccc(C#N)cc2)sc1Br [Compound 645]
Q: Cc1sc(N(Cc2ccc3nsnc3c2)c2ccc(C#N)cc2)nc1C(=O)NS(C)(=O)=O [Compound 114]
R: Cc1oc(N(Cc2ccccc2)c2ccc(C(F)(F)F)nc2)nc1C(=O)NS(C)(=O)=O [Compound 620]
S: Cc1ccc(CN(c2ccc(C#N)cc2)c2nc(C(=O)NS(C)(=O)=O)c(C)s2)cc1 [Compound 17]
query: Please list these in order of increasing EC50. Thank you! Answer format: list of labels, ordered as asked.
result: S, P, Q, R

1: Cc1nc(CN(c2ccc(C#N)cc2)c2nc(C(=O)NS(C)(=O)=O)c(Cl)s2)cs1 [Example 278]
2: Cc1sc(N(CC[C@@H]2CC[C@@H](F)C2)c2ccc(C#N)cc2)nc1C(=O)NS(C)(=O)=O (racemic) [Compound 453]
query: // max by EC50 over [ 1 , 2 ] In your reply, give the label of the chosen option.
result: 1
(1: 0.794 µM, 2: 0.251 µM)

A: Cc1sc(N(Cc2ccc3nonc3c2)c2ccc(C#N)cc2)nc1C(=O)NS(C)(=O)=O [Compound 361]
B: CCS(=O)(=O)NC(=O)c1nc(N(Cc2ccccc2)c2ccc(C#N)cc2)sc1C [Compound 362]
query: // max by EC50 over [ A , B ] In your reply, give the label of the chosen option.
result: B
(B: 0.0631 µM, A: 0.0398 µM)
